Experiment: Sigma-1 binding assay was done in guinea pig membranes by labeling the binding site with [3H](+)-pentazocine.
experimentalEndpoint: Ki (nM)
# value in nM; strip the unit string

-- ask Indicate the recorded Ki value for this molecule: OC(CN1C2CCC1CC(c1ccccc1)C2)c1ccccc1Br (stereo unspecified)
-- reply 95.7

* * *

Target: Vesicular acetylcholine transporter (Torpedo)
Test: Binding to vesicular acetylcholine transporter of torpedo synaptic vesicles
pKi: −log10 of the molar value.
Give satisfied when the value for pKi is at least 7. Give not satisfied when it is less.

>  <compound>
OC(CCCN1C2CCC1CC(c1ccccc1)C2)c1ccc(F)cc1 (configuration not stated)

>  <answerLabel>
not satisfied

$$$$

-- ask Exam item: decide whether the reported pKi for OC(CN1C2CCC1CC(c1ccccc1)C2)c1ccccc1 (configuration not stated) is at least 7.
-- reply not satisfied

-- ask Please check the record "O[C@@H]1CCN(Cc2ccc(F)cc2)C[C@H]1N1CCC2(CCc3ccccc32)CC1" and state if its pKi is at or above 7.
-- reply satisfied

-- ask pKi >= 7 for "CN1CC2(CCN(C[C@H](O)c3cccc(Br)c3)CC2)c2ccccc21" ?
-- reply not satisfied

-- ask Determine whether this compound has pKi no lower than 7: O[C@H]1CCN(Cc2ccc(F)cc2)C[C@@H]1N1C2CCC1CC(c1ccccc1)C2 (some centres not stated)
-- reply not satisfied

* * *

Biological target: Vesicular acetylcholine transporter (Torpedo)
Test: Binding to vesicular acetylcholine transporter of torpedo synaptic vesicles
experimentalEndpoint: pKi
Scale for pKi: -log10 of concentration given in mol/L; no unit attached.

// worked examples, pKi included
>  <compound>
OC(CN1CCC(c2ccccc2)CC1)c1ccc(Br)cc1 (stereo unspecified)

>  <testedOn>
Vesicular acetylcholine transporter (Torpedo)

>  <pKi>
7.52

$$$$
>  <compound>
O[C@H]1Cc2ccccc2C[C@@H]1N1C2CCC1CC(c1ccccc1)C2 (stereo partly specified)

>  <testedOn>
Vesicular acetylcholine transporter (Torpedo)

>  <pKi>
8.07

$$$$
>  <compound>
O[C@@H]1CCCC[C@H]1N1CCC2(CCc3ccccc32)CC1

>  <testedOn>
Vesicular acetylcholine transporter (Torpedo)

>  <pKi>
8.12

$$$$

-- ask Determine its reported pKi: OC(CN1C2CCC1CC(c1ccccc1)C2)c1ccc(Br)cc1 (stereo unspecified)
-- reply 6.84

-- ask Fill in reported pKi for this entry: O=C(CN1C2CCC1CC(c1ccccc1)C2)c1ccc(F)cc1 (stereo unspecified)
-- reply 5.47

* * *

Target: Vesicular acetylcholine transporter (Torpedo)
Assay: Binding to vesicular acetylcholine transporter of torpedo synaptic vesicles
experimentalEndpoint: Ki (nM)
Write it as a number; the unit nM goes unstated.

Known results for molecules:
>  <molecule>
OC(CN1C2CCC1CC(c1ccccc1)C2)c1ccccc1Br (stereo unspecified)

>  <unitAbbreviation>
nM

>  <Ki>
130

$$$$
>  <molecule>
OC(CN1C2CCC1CC(c1ccccc1)C2)c1ccc(Cl)c(Cl)c1 (stereo unspecified)

>  <unitAbbreviation>
nM

>  <Ki>
60

$$$$
>  <molecule>
O[C@@H]1Cc2ccccc2C[C@H]1N1CCC2(CCc3ccccc32)CC1

>  <unitAbbreviation>
nM

>  <Ki>
0.36

$$$$
>  <molecule>
CN1CC2(CCN([C@@H]3CN(Cc4cccc(I)c4)CC[C@H]3O)CC2)c2ccccc21

>  <unitAbbreviation>
nM

>  <Ki>
17

$$$$
>  <molecule>
O[C@@H](CN1CCC2(CCc3ccccc32)CC1)c1cccc(Br)c1

>  <unitAbbreviation>
nM

>  <Ki>
600

$$$$

-- ask Provide Vesicular acetylcholine transporter (Torpedo) Ki reading for "CN1CC2(CCN(C[C@H](O)Cc3ccc(Br)cc3)CC2)c2ccccc21" .
-- reply 420
